- TEST SYSTEM: Cytochrome P450 3A4 (Homo sapiens)
- EXPERIMENT: qHTS Assay for Inhibitors and Substrates of Cytochrome P450 3A4 (AID 884); note: nearly all actives have a fitted effect of over 50% in size
- CONDITIONS: recombinant CYP3A4, Luciferin-PPXE luminescence; series mostly up to 57.1 µM
- Method: NIH Molecular Libraries Screening Centers Network [MLSCN] NIH Chemical Genomics Center [NCGC] The P450 gene superfamily is involved in the metabolism and clearance of xenobiotics. […] The luciferin is then measured by luminescence after the addition of a luciferase detection reagent. […] Inhibitors and some substrates limit the production of luciferin, and decrease measured luminescence. […]
Results filed as inconclusive are left out. Calls of active or inactive are those of the source. Calls come from the whole dose curve; as a rule, active = well fitted inhibition curve with a large enough effect; inconclusive = small, poorly fitted or top-dose-only effect; inactive = no such curve, though single readings can be large or run the other way.
Outcome codes: YES = active, NO = inactive

[[record]]
compound = "COc1cccc(Cn2c(=O)cnc3cnc(Nc4cccc(OC)c4)nc32)c1"
class_label = "YES"

[[record]]
compound = "S=C1NC=NC2N=CNC12 (stereo not drawn)"
class_label = "NO"

[[record]]
compound = "Cn1c(=O)c(-c2ccccc2)nc2cnc(N3CCOCC3)nc21"
class_label = "NO"

[[record]]
compound = "c1ccc2c(c1)c1cccc3ccc4cccc2c4c31"
class_label = "NO"

[[record]]
compound = "O=C1CCc2ccccc2O1"
class_label = "NO"

[[record]]
compound = "CN(C)c1ncc2nc(CCc3ccccc3)c(=O)n(CCc3ccccc3)c2n1"
class_label = "YES"

[[record]]
compound = "O[C@@H]([C@H](O)[C@@H](O)CBr)[C@@H](O)CBr"
class_label = "NO"

[[record]]
compound = "O=C(O)c1ccccc1C(c1ccc(O)cc1)c1ccc(O)cc1"
class_label = "NO"

[[record]]
compound = "O=C(O)c1ccccc1"
class_label = "NO"

[[record]]
compound = "CCCN(CCC)C(=O)SCC"
class_label = "NO"

[[record]]
compound = "COC(=O)c1ccc(C=O)cc1"
class_label = "NO"

[[record]]
compound = "COc1ccc2[nH]cc(CCNc3ncnc4ccc(-c5cccc(C#N)c5)cc34)c2c1"
class_label = "YES"

[[record]]
compound = "O=C(O)c1ccc(O)cc1O"
class_label = "NO"

